For each entry below, report its Kd value.
Molecular target: T1, SspB protein (ClpX adaptor) (Escherichia coli, UniProt P0AFZ3 1-165)
T1 sequence: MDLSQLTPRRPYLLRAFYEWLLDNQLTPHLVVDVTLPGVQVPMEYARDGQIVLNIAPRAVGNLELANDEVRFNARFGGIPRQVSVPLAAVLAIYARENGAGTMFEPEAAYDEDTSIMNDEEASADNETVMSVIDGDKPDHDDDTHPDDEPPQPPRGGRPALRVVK
Test: MST
Ends that are not written are not given here.
# include the unit after the value

// below: answered binders
INSERT INTO measurements (binder, endpoint_result) VALUES
  ('eGFP-AANDENYALAA (not fully specified) [eGFP-AANDENYALAA]', '80 nM'),
  ('eGFP-AANDENYADAS (not fully specified) [eGFP-AANDENYADAS]', '330 nM'),
  ('eGFP-AANDENYSENYADAS (not fully specified) [eGFP-AANDENYSENYADAS]', '300 nM');

Consider the record given below.
Look up Kd of eGFP-AANDENYSENY (not fully specified) [eGFP-AANDENYSENY] and report it. 100 nM
